Values compiled from patent US20240050428A1.

// reported pIC50 for each item listed
test system: MV4;11 cells; test: Cell viability assay (CellTiter-Glo) in MV4;11 cells, alone or with gilteritinib; format: cell-based; details: Homo sapiens, MV4-11, 72 h, MV4;11 cells, compound with gilteritinib 10 nM, three days, CellTiter-Glo; read-out: MV4; 11 IC50 gilteritinib
pIC50: −log10 of the molar value.

compound | pIC50
O=C1CCC(N2C(=O)c3ccc(NCCC[C@H]4C[C@H](n5cc(-c6cnc7ccc(N8CCN(CC(F)(F)F)CC8)cc7n6)cn5)C4)cc3C2=O)C(=O)N1 (stereo partly shown) | > 8.00
O=C1CCC(N2C(=O)c3ccc(NC4CC(n5cc(-c6cnc7ccccc7n6)cn5)C4)cc3C2=O)C(=O)N1 (stereo not shown) | 6.00 to 7.00
O=C1CCC(N2C(=O)c3ccc(NCCCCCCn4ncc(-c5cnc6ccccc6n5)c4C4CC4)cc3C2=O)C(=O)N1 (stereo not shown) | 7.00 to 8.00
O=C1CCC(N2C(=O)c3ccc(NC[C@H]4C[C@H](n5cc(-c6cnccn6)c(C6CC6)n5)C4)cc3C2=O)C(=O)N1 (stereo partly shown) | 6.00 to 7.00
CN1CCC(c2ccc3nc(-c4cnn([C@H]5C[C@H](CCCNc6ccc7c(c6)C(=O)N(C6CCC(=O)NC6=O)C7=O)C5)c4)cnc3c2)CC1 (stereo partly shown) | 7.00 to 8.00
Cc1nc2ccccc2nc1-c1cnn(CCCCCCNc2ccc3c(c2)C(=O)N(C2CCC(=O)NC2=O)C3=O)c1 (stereo not shown) | 7.00 to 8.00
CN1CCN(c2nccc(-c3cnn([C@H]4C[C@H](CCCNc5ccc6c(c5)C(=O)N(C5CCC(=O)NC5=O)C6=O)C4)c3)n2)CC1 (stereo partly shown) | 6.00 to 7.00
O=C1CCC(N2C(=O)c3ccc(NC[C@H]4C[C@H](n5nc(C6CC6)c6cnccc65)C4)cc3C2=O)C(=O)N1 (stereo partly shown) | < 6.00
O=C1CCC(N2C(=O)c3ccc(NCCC4CC5(C4)CC(n4cc(-c6cnc7ccccc7n6)cn4)C5)cc3C2=O)C(=O)N1 (stereo not shown) | > 8.00
CC1CCCCC1c1cn([C@H]2C[C@H](CNc3ccc4c(c3)C(=O)N(C3CCC(=O)NC3=O)C4=O)C2)nc1C1CC1 (stereo partly shown) | > 8.00
O=C1CCC(N2C(=O)c3ccc(NCCCCCC(=O)N4CCC(n5cc(-c6cnc7cccc(C8=CCNCC8)c7n6)cn5)CC4)cc3C2=O)C(=O)N1 (stereo not shown) | > 8.00
O=C1CCC(N2C(=O)c3ccc(NCCCCCCn4cc(-c5cnc6ccc(C(F)(F)F)cc6n5)cn4)cc3C2=O)C(=O)N1 (stereo not shown) | 7.00 to 8.00
COc1ccc(-c2cnn([C@H]3C[C@H](CCCNc4ccc5c(c4)C(=O)N(C4CCC(=O)NC4=O)C5=O)C3)c2)nc1 (stereo partly shown) | 7.00 to 8.00

* * *

test system: MOLM-13 cells; experiment: Cell viability assay (CellTiter-Glo) in MOLM-13 cells, alone or with gilteritinib; type: cell-based; conditions: Homo sapiens, MOLM-13, 72 h, MOLM-13 cells, with gilteritinib 20 nM, three days, CellTiter-Glo; read-out: MOLM-13 IC50 gilteritinib
pIC50: −log10 of the molar value.
Listed below: pIC50 values for each entry.
recorded endpoint: pIC50

compound | result
CN1CCN(c2ccc3ncc(-c4cnn([C@H]5C[C@H](CNc6ccc7c(c6)C(=O)N(C6CCC(=O)NC6=O)C7=O)C5)c4)nc3c2)CC1 (some centres unmarked) [GS-185] | 7.00 to 8.00
O=C1CCC(N2Cc3c(Nc4ccnc(NCCCN5CCC(n6cc(-c7cnc8ccccc8n7)cn6)CC5)n4)cccc3C2=O)C(=O)N1 (centres unmarked) [GS-088] | < 6.00
O=C1CCC(N2C(=O)c3ccc(NCCCN4CCC(n5cc(-c6cnc7ccccc7n6)cn5)CC4)cc3C2=O)C(=O)N1 (centres unmarked) [GS-343] | 7.00 to 8.00
O=C1CCC(N2Cc3c(Nc4ccnc(Nc5cccc(N6CCC(n7cc(-c8cnc9ccccc9n8)cn7)CC6)c5)n4)cccc3C2=O)C(=O)N1 (centres unmarked) [GS-025] | > 8.00
O=C1CCC(N2C(=O)c3ccc(NCCC[C@H]4C[C@H](n5cc(-c6cnc7ccc(CN8CCOCC8)cc7n6)cn5)C4)cc3C2=O)C(=O)N1 (some centres unmarked) [GS-208] | 7.00 to 8.00
O=C1CCC(N2C(=O)c3ccc(NC[C@H]4C[C@H](n5cc(-c6nccc7ncccc67)c(C6CC6)n5)C4)cc3C2=O)C(=O)N1 (some centres unmarked) [GS-281] | > 8.00
O=C1CCC(N2C(=O)c3ccc(C4CN(CCCCn5cc(-c6cnc7ccccc7n6)cn5)C4)cc3C2=O)C(=O)N1 (centres unmarked) [GS-364] | < 6.00
CN(Cc1ccc2c(c1)CN(C1CCC(=O)NC1=O)C2=O)C(=O)CCCC(=O)N1CCC(n2cc(-c3cnc4cccc(Br)c4n3)cn2)CC1 (centres unmarked) [GS-058] | < 6.00
O=C1CCC(N2C(=O)c3ccc(NCCc4ccc(-n5cc(-c6cnc7ccccc7n6)cn5)cc4)cc3C2=O)C(=O)N1 (centres unmarked) [GS-117] | 6.00 to 7.00
O=C1CCC(N2Cc3c(Nc4ccnc(NCCC(=O)N5CCC(n6cc(-c7cnc8ccccc8n7)cn6)CC5)n4)cccc3C2=O)C(=O)N1 (centres unmarked) [GS-085] | < 6.00
O=C1CCC(N2C(=O)c3ccc(NCCC[C@H]4C[C@H](n5cc(-c6cnc7ccc(N8C[C@@H]9C[C@H]8CN9)cc7n6)cn5)C4)cc3C2=O)C(=O)N1 (some centres unmarked) [GS-203] | 7.00 to 8.00
O=C1CCC(N2Cc3c(NC4CCCC(Nc5cccc(N6CCC(n7cc(-c8cnc9ccccc9n8)cn7)CC6)c5)C4)cccc3C2=O)C(=O)N1 (centres unmarked) [GS-110] | > 8.00
CN1CCN(c2ccc3nc(-c4cn([C@H]5C[C@H](CNc6ccc7c(c6)C(=O)N(C6CCC(=O)NC6=O)C7=O)C5)nc4C4CC4)cnc3c2)CC1 (some centres unmarked) [GS-314] | > 8.00
O=C1CCC(N2C(=O)c3ccc(NCCC[C@H]4C[C@H](n5cc(-c6cnc7c(F)cccc7n6)cn5)C4)cc3C2=O)C(=O)N1 (some centres unmarked) [GS-234] | 7.00 to 8.00
Cc1nn([C@H]2C[C@H](CCCNc3ccc4c(c3)C(=O)N(C3CCC(=O)NC3=O)C4=O)C2)cc1-c1cnc2ccc(N3CCOCC3)cc2n1 (some centres unmarked) [GS-399] | > 8.00
O=C1CCC(N2C(=O)c3ccc(NCCC[C@H]4C[C@H](n5cc(-c6cnc7ccccc7n6)c(C(F)(F)F)n5)C4)cc3C2=O)C(=O)N1 (some centres unmarked) [GS-400] | 7.00 to 8.00
O=C1CCC(N2C(=O)c3ccc(NCCC[C@H]4C[C@@H](n5cc(-c6cnc7ccc(C8CCNCC8)cc7n6)c(C6CC6)n5)C4)cc3C2=O)C(=O)N1 (some centres unmarked) [GS-231] | > 8.00
O=C1CCC(N2C(=O)c3ccc(NCCC[C@H]4C[C@H](n5cc(-c6cccc(N7CCOCC7)n6)cn5)C4)cc3C2=O)C(=O)N1 (some centres unmarked) [GS-217] | > 8.00
CN1CCN(c2cccc3nc(-c4cn([C@H]5C[C@H](CNc6ccc7c(c6)C(=O)N(C6CCC(=O)NC6=O)C7=O)C5)nc4C4CC4)cnc23)CC1 (some centres unmarked) [GS-267] | > 8.00
O=C1CCC(N2C(=O)c3ccc(NCCCc4cccc(-n5cc(-c6cnc7ccccc7n6)cn5)c4)cc3C2=O)C(=O)N1 (centres unmarked) [GS-365] | 6.00 to 7.00
O=C1CCC(N2C(=O)c3ccc(NCCC[C@H]4C[C@H](n5cc(-c6cnc7ccc(C8CCNCC8)cc7n6)cn5)C4)cc3C2=O)C(=O)N1 (some centres unmarked) [GS-199] | > 8.00
O=C1CCC(N2C(=O)c3ccc(NCC4CCC(Cn5cc(-c6cnc7ccccc7n6)cn5)CC4)cc3C2=O)C(=O)N1 (centres unmarked) [GS-155] | 6.00 to 7.00
O=C1CCC(N2C(=O)c3ccc(NCCCCCC(=O)c4ccc(-n5cccn5)cc4)cc3C2=O)C(=O)N1 (centres unmarked) [GS-061] | 6.00 to 7.00
O=C1CCC(N2C(=O)c3ccc(NCCNC(=O)N4CCC(n5cc(-c6cnc7ccccc7n6)cn5)CC4)cc3C2=O)C(=O)N1 (centres unmarked) [GS-149] | 6.00 to 7.00
O=C1CCC(N2C(=O)c3ccc(NCCCCCC(=O)N4CCC(n5cc(N6CCOCC6)cn5)CC4)cc3C2=O)C(=O)N1 (centres unmarked) [GS-047] | 7.00 to 8.00
O=C1CCC(N2Cc3ccc(CCCCCC(=O)N4CCC(c5cccc(Cl)c5)CC4)cc3C2=O)C(=O)N1 (centres unmarked) [GS-113] | 7.00 to 8.00
